Catalogue of molecules with associated pKa
ASSAY NOTES: Apparent pKa of ionizable lipid in LNP by TNS fluorescence
SETUP CONDITIONS: pH 3, probe TNS (2-(p-toluidino)-6-naphthalene sulfonic acid)
REPORTED ENDPOINT: pKa

> print(dat)
                                   molecule  reported.endpoint  result
1  CC/C=C\CCCC/C=C\CCCCCCCC(=O)OC[C@H](COP(=O)(OC)OCCCCN(C)C)OC(=O)CCCCCCC/C=C\CCCC/C=C\CC (stereo partly drawn)                pKa  6 to 7
2  CCCCC/C=C\CCCC/C=C\CCCCCC1(CCCCC/C=C\CCCC/C=C\CCCCC)OCC(CCCN(C)C)O1 (stereo not drawn)                pKa  6 to 7
3  CCCCCC/C=C\CCCCCCCCC1(CCCCCCCC/C=C\CCCCCC)OCC(CCN(C)C)O1 (stereo not drawn)                pKa  6 to 7
4  CC/C=C\CCCC/C=C\CCCCCCCCC(CCCCCCCC/C=C\CCCC/C=C\CC)OC(=O)CCCN(C)C                pKa  6 to 7
5  CCCCC/C=C\CCCC/C=C\CCCCCC(CCCCC/C=C\CCCC/C=C\CCCCC)OC(=O)CCCCN(C)C                pKa  6 to 7
6  CCCCC/C=C\CCCC/C=C\CCCCCC1(CCCCC/C=C\CCCC/C=C\CCCCC)OCC(CCN(CC)CC)O1 (stereo not drawn)                pKa  6 to 7
